target: Acetylcholinesterase (Homo sapiens, UniProt P22303)
Sequence (P22303 whole entry): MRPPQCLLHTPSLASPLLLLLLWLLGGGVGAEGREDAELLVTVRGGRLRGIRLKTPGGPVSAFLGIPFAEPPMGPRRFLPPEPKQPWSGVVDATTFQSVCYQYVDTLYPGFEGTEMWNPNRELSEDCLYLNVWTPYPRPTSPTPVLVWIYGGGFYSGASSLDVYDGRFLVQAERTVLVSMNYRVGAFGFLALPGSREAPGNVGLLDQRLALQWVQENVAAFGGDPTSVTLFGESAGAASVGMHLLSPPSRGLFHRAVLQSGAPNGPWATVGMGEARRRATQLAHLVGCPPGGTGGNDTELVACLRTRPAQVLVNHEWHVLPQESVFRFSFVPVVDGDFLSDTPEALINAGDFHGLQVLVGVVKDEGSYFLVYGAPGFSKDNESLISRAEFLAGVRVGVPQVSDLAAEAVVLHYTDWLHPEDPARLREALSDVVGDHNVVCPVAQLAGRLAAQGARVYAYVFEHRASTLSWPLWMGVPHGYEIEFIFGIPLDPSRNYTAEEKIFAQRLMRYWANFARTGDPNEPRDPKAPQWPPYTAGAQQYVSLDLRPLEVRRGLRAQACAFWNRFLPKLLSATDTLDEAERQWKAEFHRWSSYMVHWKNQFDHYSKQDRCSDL
MEASURE NAME: IC50 (nM)
// return numeric value only (unit: nM, not printed)

Task: Requested read-out IC50, target or system Acetylcholinesterase (Homo sapiens, UniProt P22303), entry CN(C(=O)Oc1ccc2c(c1)[C@]1(C)CCN(C)[C@@H]1N2C)c1ccccc1
Result: 285

Task: Entry to check: CN1CC[C@@]2(C)c3cc(OC(=O)Nc4ccccc4)ccc3N(C=O)[C@@H]12
Result: 330

Task: Entry to check: CCOC(=O)C1=CN(C)c2cccc(OC(=O)N(C)C)c2C1
Result: 7

Task: Entry to check: CNC(=O)Oc1ccc2c(c1)[C@]1(C)CCN(C)[C@@H]1N2C=O
Result: 2500
